Would you kindly list pIC50 for each of these molecules?
tested.target: Human plasma kallikrein (Homo sapiens)
Construct: yields a heavy chain (371 amino acids) and a light chain (248 amino acids)
Sequence (P03952 391-638 limits assumed): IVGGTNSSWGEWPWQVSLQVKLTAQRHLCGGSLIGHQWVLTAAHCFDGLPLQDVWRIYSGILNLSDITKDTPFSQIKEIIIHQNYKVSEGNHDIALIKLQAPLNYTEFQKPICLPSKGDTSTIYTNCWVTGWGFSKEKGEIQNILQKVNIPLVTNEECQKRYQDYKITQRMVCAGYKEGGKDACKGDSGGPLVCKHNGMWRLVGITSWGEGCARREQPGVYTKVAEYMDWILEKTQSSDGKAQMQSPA
Sequence (P03952 20-390 partner limits assumed): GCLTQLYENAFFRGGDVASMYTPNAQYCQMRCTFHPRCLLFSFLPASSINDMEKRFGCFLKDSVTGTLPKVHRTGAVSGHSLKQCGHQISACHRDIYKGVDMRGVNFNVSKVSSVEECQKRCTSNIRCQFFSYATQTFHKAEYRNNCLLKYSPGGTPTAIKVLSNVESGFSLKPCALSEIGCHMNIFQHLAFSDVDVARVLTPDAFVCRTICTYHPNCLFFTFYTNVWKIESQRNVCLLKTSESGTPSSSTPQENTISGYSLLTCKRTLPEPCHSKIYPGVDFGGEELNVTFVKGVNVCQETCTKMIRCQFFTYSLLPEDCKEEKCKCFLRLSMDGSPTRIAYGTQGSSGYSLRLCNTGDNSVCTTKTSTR
assay.details: Kallikrein Assay (fluorogenic substrate hydrolysis, AFC release)
recorded.conditions: purified Human plasma kallikrein 0.5 nM; substrate Acetyl-K—P—R-AFC 100 mM; 50 mM HEPES pH 7.4
Notebook: values listed as pIC50 are -log10 of the concentration (mol/L).

**Q:** Return pIC50 (reported value) for this molecule: Cc1c(C(C)n2cc(C(=O)NC3CC(c4cccc(Cl)c4)C3O)nn2)nnc(N2C[C@H]3C[C@H]3C2=O)c1C (single isomer, unassigned) [Example 130]
**A:** 8.07

**Q:** Return pIC50 (reported value) for this molecule: CC(c1cnc(N2C[C@H]3C[C@H]3C2=O)nc1)n1cc(C(=O)N[C@H]2C[C@@H](c3cc(Cl)ccc3C#N)C2)cn1 (single isomer, unassigned) [Example 4]
**A:** 7.76

**Q:** Return pIC50 (reported value) for this molecule: Cc1ccc(C#N)c([C@H]2C[C@@H](NC(=O)c3cnn(C(C)c4cnc(N5C[C@H]6C[C@H]6C5=O)c(C)c4C)c3)C2)c1 (single isomer, unassigned) [Example 45]
**A:** 9.70

**Q:** Return pIC50 (reported value) for this molecule: COc1cc(C(C)n2cc(C(=O)N[C@H]3C[C@@](C)(c4cc(Cl)ccc4C#N)C3)nn2)cnc1N1C[C@H]2C[C@H]2C1=O (single isomer, unassigned) [Example 106]
**A:** 8.66

**Q:** Return pIC50 (reported value) for this molecule: Cc1c(C(C)n2cc(C(=O)NC3CC(c4cccc(Cl)c4)C3O)nn2)cnc(N2C[C@H]3C[C@H]3C2=O)c1F (single isomer, unassigned) [Example 125]
**A:** 6.89

**Q:** Return pIC50 (reported value) for this molecule: Cc1ccc(C#N)c([C@H]2C[C@@H](NC(=O)c3cn(C(C)c4nnc(N5C[C@H]6C[C@H]6C5=O)c(C)c4C)nn3)C2)n1 (single isomer, unassigned) [Example 127]
**A:** 6.15

**Q:** Return pIC50 (reported value) for this molecule: Cc1ccc(C#N)c([C@H]2C[C@@H](NC(=O)c3cn(C(C)c4cnc(N5C[C@H]6C[C@H]6C5=O)cc4C)nn3)C2)n1 (single isomer, unassigned)
**A:** 8.72

**Q:** Return pIC50 (reported value) for this molecule: COc1cc(N2C[C@H]3C[C@H]3C2=O)ncc1[C@H](C)n1cc(C(=O)N[C@H]2C[C@@H](c3cc(Cl)ccc3C#N)C2)cn1 (single isomer, unassigned)
**A:** 9.05

**Q:** Return pIC50 (reported value) for this molecule: N#Cc1ccc(Cl)cc1[C@H]1C[C@@H](NC(=O)c2cn([C@H](CO)c3ccc(N4C[C@H]5C[C@H]5C4=O)nc3)nn2)C1 (single isomer, unassigned)
**A:** 7.55

**Q:** Return pIC50 (reported value) for this molecule: Cc1cc(C(C)n2cc(C(=O)N[C@H]3C[C@@H](c4cc(Cl)ccc4C#N)C3)cn2)nnc1N1C[C@H]2C[C@H]2C1=O (single isomer, unassigned) [Example 31]
**A:** 8.14

**Q:** Return pIC50 (reported value) for this molecule: Cc1cc(N2C[C@H]3C[C@H]3C2=O)ncc1C(C)n1cc(C(=O)N[C@@H]2CC[C@H](c3cc(Cl)ccc3C#N)C2)nn1 (single isomer, unassigned) [Example 63]
**A:** 7.59
